Where do the numbers come from? From paper PMC10786891.

Target: T1, EsCas13d, nuclease-dead (Eubacterium siraeum, UniProt B0MS50, R295A;H300A;R849A;H854A)
T1 sequence: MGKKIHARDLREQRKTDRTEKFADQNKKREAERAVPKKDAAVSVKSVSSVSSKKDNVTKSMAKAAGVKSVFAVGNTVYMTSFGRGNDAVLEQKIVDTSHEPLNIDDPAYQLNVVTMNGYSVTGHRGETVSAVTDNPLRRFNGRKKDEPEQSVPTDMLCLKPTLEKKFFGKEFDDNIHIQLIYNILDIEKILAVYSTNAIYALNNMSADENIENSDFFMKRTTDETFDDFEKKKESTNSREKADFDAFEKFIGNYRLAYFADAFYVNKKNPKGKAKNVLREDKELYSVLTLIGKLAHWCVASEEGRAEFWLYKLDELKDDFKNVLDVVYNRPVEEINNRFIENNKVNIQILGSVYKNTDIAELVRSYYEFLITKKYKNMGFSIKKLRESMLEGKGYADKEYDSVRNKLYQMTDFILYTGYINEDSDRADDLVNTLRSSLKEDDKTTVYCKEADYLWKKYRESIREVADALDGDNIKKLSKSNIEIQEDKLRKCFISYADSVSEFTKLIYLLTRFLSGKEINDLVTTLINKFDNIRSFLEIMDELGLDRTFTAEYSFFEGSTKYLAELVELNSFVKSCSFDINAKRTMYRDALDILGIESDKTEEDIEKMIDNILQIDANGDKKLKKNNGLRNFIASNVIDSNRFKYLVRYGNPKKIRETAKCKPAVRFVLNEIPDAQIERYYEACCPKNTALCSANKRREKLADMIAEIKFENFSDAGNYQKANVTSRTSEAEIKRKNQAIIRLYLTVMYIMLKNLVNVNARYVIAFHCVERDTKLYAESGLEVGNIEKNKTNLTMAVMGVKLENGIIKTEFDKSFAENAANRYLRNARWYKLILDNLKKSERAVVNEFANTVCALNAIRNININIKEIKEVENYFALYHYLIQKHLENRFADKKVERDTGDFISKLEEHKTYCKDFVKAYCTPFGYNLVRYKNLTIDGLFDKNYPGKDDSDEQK
Experiment: crRNA (strand 1, pre-loaded); Mg2+; 40 mM Tris-HCl pH 7.5, 150 mM NaCl, 6 mM MgCl2, 1 mM DTT, 0.1% Tween-20, 0.2 mg/ml BSA; 25 C; 10 min per concentration, then washed
Details: tags: His6-TwinStrep-SUMO cleaved; N-terminal SNAP kept (SNAP-Surface 488); label: 3' end held by stalled T7 RNA polymerase
experimental-endpoint: log10(Kd) (log10 of the value in nM)
Heads up, the numbers here are log10 of Kd in nM units.

Record excerpt, results attached:
# binder, log10(Kd)
rows = [
    ("target 1 MT 5'PFS GAG 3'PFS UGU (mixed) RNA 1: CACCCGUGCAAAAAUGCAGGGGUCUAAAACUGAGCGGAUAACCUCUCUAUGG RNA 2: GGGAAUGGAUCCACAUCUACGAAUUCGAGCCAUAGAGAGGUUAUCCGCUCAUGUAGAUCGGAAGAGCACACGU", 1.81),
    ("target 1 insU 3' of 13,insU 3' of 5 (mixed) RNA 1: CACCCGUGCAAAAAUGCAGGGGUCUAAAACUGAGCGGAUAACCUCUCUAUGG RNA 2: GGGAAUGGAUCCACAUCUACGAAUUCGUACCAUAGAGAGUGUUAUCCGUCUCACCGAGAUCGGAAGAGCACACGU", 1.35),
    ("target 2 MT 5'PFS CUC 3'PFS UCA (mixed) RNA 1: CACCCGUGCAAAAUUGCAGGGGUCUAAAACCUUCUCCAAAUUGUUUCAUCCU RNA 2: GGGAAUGGAUCCACAUCUACGAAUUCCUCAGGAUGAAACAAUUUGGAGAAGUCAAGAUCGGAAGAGCACACGU", 0.52),
    ("target 1 MT 5'PFS GGA 3'PFS CUU (mixed) RNA 1: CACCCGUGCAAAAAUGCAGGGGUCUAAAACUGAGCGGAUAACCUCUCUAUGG RNA 2: GGGAAUGGAUCCACAUCUACGAAUUCGGACCAUAGAGAGGUUAUCCGCUCACUUAGAUCGGAAGAGCACACGU", 1.11),
    ("target 1 MT 5'PFS UGU 3'PFS AUA (mixed) RNA 1: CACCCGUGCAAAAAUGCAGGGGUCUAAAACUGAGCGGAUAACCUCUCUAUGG RNA 2: GGGAAUGGAUCCACAUCUACGAAUUCUGUCCAUAGAGAGGUUAUCCGCUCAAUAAGAUCGGAAGAGCACACGU", 1.80),
]

*Q* I have this binder here, target 1 insC 3' of 20,insA 3' of 13 (mixed) RNA 1: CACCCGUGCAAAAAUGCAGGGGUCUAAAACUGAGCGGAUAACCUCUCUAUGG RNA 2: GGGAAUGGAUCCACAUCUACGAAUUCGUACCACUAGAGAGAGUUAUCCGCUCACCGAGAUCGGAAGAGCACACGU , and I need its recorded log10(Kd).
*A* 0.67

*Q* // query log10(Kd) value for entry target 2 MT 5'PFS GUC 3'PFS AAU (mixed) RNA 1: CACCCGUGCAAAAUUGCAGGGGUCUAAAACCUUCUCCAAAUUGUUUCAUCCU RNA 2: GGGAAUGGAUCCACAUCUACGAAUUCGUCAGGAUGAAACAAUUUGGAGAAGAAUAGAUCGGAAGAGCACACGU
*A* 1.11

*Q* For target 1 insC 3' of 22,insA 3' of 15 (mixed) RNA 1: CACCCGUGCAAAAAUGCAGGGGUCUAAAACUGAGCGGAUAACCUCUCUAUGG RNA 2: GGGAAUGGAUCCACAUCUACGAAUUCGUACCCAUAGAGAAGGUUAUCCGCUCACCGAGAUCGGAAGAGCACACGU , what is its reported log10(Kd)?
*A* 1.04
